B1: CPOX (parent)
chain: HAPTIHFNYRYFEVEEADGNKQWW

- Variants of: B1
- assay_details: protein stability index of a GFP-peptide fusion (GPS, HEK-293T) (PSI 1-6); higher = more stable;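 also: lentivirally expressed fusions sorted by FACS into six bins by GFP to DsRed ratio, PSI derived from sequencing read proportions per bin multiplied by bin number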
- condition_set: c terminus: a fixed tail appended
# protein stability index per entry
observable: protein stability index

construct_sequence: HAPTIHFNYRPFEVEEADGNKQWW [Y11P]
quantitative_result: 2.98

construct_sequence: HAPTIHFNYRYFEVEEADGNIQWW [K21I]
quantitative_result: 2.25

construct_sequence: HAPTIHVNYRYFEVEEADGNKQWW [F7V]
quantitative_result: 2.58

construct_sequence: HAPTIHFNYLYFEVEEADGNKQWW [R10L]
quantitative_result: 2.25

construct_sequence: HAPTYHFNYRYFEVEEADGNKQWW [I5Y]
quantitative_result: 1.97

construct_sequence: HAPTIWFNYRYFEVEEADGNKQWW [H6W]
quantitative_result: 1.59

construct_sequence: HAPTIHFNYRYFEVEEADLNKQWW [G19L]
quantitative_result: 1.87

construct_sequence: HAPTIEFNYRYFEVEEADGNKQWW [H6E]
quantitative_result: 2.66

construct_sequence: HAPTIHFNYRYFEVEEADGNCQWW [K21C]
quantitative_result: 2.45

construct_sequence: HAPTIHFNLRYFEVEEADGNKQWW [Y9L]
quantitative_result: 3.03

construct_sequence: HAPTIHWNYRYFEVEEADGNKQWW [F7W]
quantitative_result: 2.96
